# credit: patent US20230233569A1

measured target: KRAS G12V (Homo sapiens, UniProt P01116+P62937, G12V)
Sequence (P01116 1-169 isoform P01116-2 G12V limits assumed): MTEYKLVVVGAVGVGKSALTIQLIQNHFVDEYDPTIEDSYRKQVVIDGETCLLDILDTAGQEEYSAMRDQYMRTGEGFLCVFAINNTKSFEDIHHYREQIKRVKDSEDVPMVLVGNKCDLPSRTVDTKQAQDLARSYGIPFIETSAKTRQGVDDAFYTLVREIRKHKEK
Sequence (P62937 whole entry): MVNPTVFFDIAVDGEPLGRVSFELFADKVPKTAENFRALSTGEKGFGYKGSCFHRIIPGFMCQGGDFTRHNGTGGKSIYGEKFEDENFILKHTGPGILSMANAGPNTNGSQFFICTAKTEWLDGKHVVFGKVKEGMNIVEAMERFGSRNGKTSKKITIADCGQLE
assay overview: Ras-Raf disruption / FRET / MOA assay (BRAF RBD)
Assay type: biochemical
settings: KRAS G12V FRET data IC50, Ras-Raf disruption, with Cyclophilin A
pIC50: −log10 of the molar value.
Catalogue of pIC50 readings, one per entry.

{"columns": ["compound", "pIC50"],
 "data": [
  ["CCn1c(-c2cccnc2[C@H](C)OC)c2c3cc(ccc31)-c1csc(n1)C[C@H](NC(=O)[C@H](C1CCCC1)N(C)C(=O)CN(C)C(=O)[C@@H]1N[C@@H]1C1CC1)C(=O)N1CCC[C@H](N1)C(=O)OCC(C)(C)C2 [Example 210]", "5.00 to 6.00"],
  ["CCn1c(-c2cccnc2[C@H](C)OC)c2c3cc(ccc31)-c1cc(O)cc(c1)C[C@H](NC(=O)[C@H](C(C)C)N(C)C(=O)[C@@H](C)N(C)C(=O)[C@H]1CN1)C(=O)N1CCC[C@H](N1)C(=O)OCC(C)(C)C2 [Example 114]", "5.00 to 6.00"],
  ["CCn1c(-c2cccnc2[C@H](C)OC)c2c3cc(ccc31)-c1cc(O)cc(c1)C[C@H](NC(=O)[C@H](C(C)C)N(C)C(=O)CN(C)C(=O)[C@H]1CN1CCCN1CCCC1=O)C(=O)N1CCC[C@H](N1)C(=O)OCC(C)(C)C2 (some centres unmarked) [Example 268]", "7.00 to 8.00"],
  ["CCn1c(-c2cccnc2[C@H](C)OC)c2c3cc(ccc31)-c1cc(O)cc(c1)C[C@H](NC(=O)[C@H](C1CCCC1)N(C)C(=O)CN(C)C(=O)[C@H]1[C@@H](C3CC3)N1CCCOC)C(=O)N1CCC[C@H](N1)C(=O)OCC(C)(C)C2 (some centres unmarked) [Example 317]", "7.00 to 8.00"],
  ["CCn1c(-c2cccnc2[C@H](C)OC)c2c3cc(ccc31)-c1cc(O)cc(c1)C[C@H](NC(=O)[C@H](C(C)C)N(C)C(=O)[C@H]1CCN1C(=O)[C@H]1CN1)C(=O)N1CCC[C@H](N1)C(=O)OCC(C)(C)C2 [Example 158]", "7.00 to 8.00"],
  ["CCn1c(-c2cccnc2[C@H](C)OC)c2c3cc(ccc31)-c1cc(O)cc(c1)C[C@H](NC(=O)[C@H](C(C)C)N(C)C(=O)CN(C)C(=O)[C@H]1N[C@H]1C1CCC1)C(=O)N1CCC[C@H](N1)C(=O)OCC(C)(C)C2 [Example 288]", "7.00 to 8.00"],
  ["CCn1c(-c2cc(C3CCN(C)CC3)cnc2[C@H](C)OC)c2c3cc(ccc31)-c1cc(O)cc(c1)C[C@H](NC(=O)[C@H](C1CCCC1)N(C)C(=O)CN(C)C(=O)[C@H]1CN1)C(=O)N1CCC[C@H](N1)C(=O)OCC(C)(C)C2 [Example 230]", "7.00 to 8.00"],
  ["CCn1c(-c2cccnc2[C@H](C)OC)c2c3cc(ccc31)-c1cc(cc(C(F)F)c1)C[C@H](NC(=O)[C@H](C1CCCC1)N(C)C(=O)CN(C)C(=O)[C@@H]1N[C@@H]1C1CC1)C(=O)N1CCC[C@H](N1)C(=O)OCC(C)(C)C2 [Example 320]", "5.00 to 6.00"]
]}

###

measured target: KRAS WT (Homo sapiens, UniProt P01116+P62937)
Sequence (P01116 1-169 isoform P01116-2 limits assumed, one chain of several): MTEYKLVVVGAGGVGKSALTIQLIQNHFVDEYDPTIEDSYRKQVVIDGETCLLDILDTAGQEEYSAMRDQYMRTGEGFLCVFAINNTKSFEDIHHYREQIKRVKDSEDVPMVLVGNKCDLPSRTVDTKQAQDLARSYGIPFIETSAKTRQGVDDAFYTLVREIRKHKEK
assay overview: Ras-Raf disruption / FRET / MOA assay (BRAF RBD)
Type: biochemical
settings: Ras-Raf disruption, with Cyclophilin A; read-out: KRAS WT FRET data IC50
Catalogue of IC50 readings, one per entry.

{"columns": ["molecule", "IC50"],
 "data": [
  ["CCn1c(-c2cnccc2COC)c2c3cc(ccc31)-c1cccc(c1)C[C@H](NC(=O)[C@H](C(C)C)N(C)C(=O)CCN=C=NC1(COC)CC1)C(=O)N1CCC[C@H](N1)C(=O)OCC(C)(C)C2", "> 10000 nM"],
  ["CCn1c(-c2cnccc2COC)c2c3cc(ccc31)-c1cccc(c1)C[C@H](NC(=O)[C@H](C(C)C)N(C)C(=O)C1CCC(N=C=Nc3ccc(OC)cc3)C1)C(=O)N1CCC[C@H](N1)C(=O)OCC(C)(C)C2 (some centres unmarked)", "> 10000 nM"],
  ["CCn1c(-c2cccnc2[C@H](C)OC)c2c3cc(ccc31)-c1csc(n1)C[C@H](NC(=O)[C@H](C(C)C)N(C)C(=O)N1CC(CN(C)C(=O)[C@H]3CN3)C1)C(=O)N1CCC[C@H](N1)C(=O)OCC(C)(C)C2 (atropisomer, axis not shown)", "100 to 1000 nM"],
  ["CCn1c(-c2cccnc2[C@H](C)OC)c2c3cc(ccc31)-c1cccc(c1)C[C@H](NC(=O)[C@H](C(C)C)N(C)C(=O)[C@H]1CC[C@H](N=C=NC(C)(C)C)C1)C(=O)N1CCC[C@H](N1)C(=O)OCC(C)(C)C2", "> 10000 nM"],
  ["CCn1c(-c2cccnc2[C@H](C)OC)c2c3cc(ccc31)-c1cc(O)cc(c1)C[C@H](NC(=O)[C@@H](COC1CCN(C(=O)[C@H]3CN3)CC1)C(C)C)C(=O)N1CCC[C@H](N1)C(=O)OCC(C)(C)C2 (atropisomer, axis not shown)", "100 to 1000 nM"],
  ["CCn1c(-c2cccnc2[C@H](C)OC)c2c3cc(ccc31)-c1cc(O)cc(c1)C[C@H](NC(=O)[C@H](C(C)C)N(C)C(=O)[C@]1(F)CCN(C(=O)[C@@H]3CN3)C1)C(=O)N1CCC[C@H](N1)C(=O)OCC(C)(C)C2 (atropisomer, axis not shown)", "100 to 1000 nM"],
  ["CCn1c(-c2cccnc2[C@H](C)OC)c2c3cc(ccc31)-c1cc(O)cc(c1)C[C@H](NC(=O)[C@H](C(C)C)N(C)C(=O)[C@@H]1CN1)C(=O)N1CCC[C@H](N1)C(=O)OCC(C)(C)C2", "10 to 100 nM"],
  ["CCn1c(-c2cccnc2[C@H](C)OC)c2c3cc(ccc31)-c1csc(n1)C[C@H](NC(=O)[C@H](C(C)C)N(C)C(=O)N1CC[C@H]1CN(C)C(=O)[C@@H]1CN1)C(=O)N1CCC[C@H](N1)C(=O)OCC(C)(C)C2", "1000 to 10000 nM"]
]}

###

System: P70S6K (Thr389) phosphorylation (mTORC1) in MDA-MB-468 cells
assay overview: Cell based AlphaLISA assay, mTOR kinase cellular assay: inhibition of p-P70S6K (T389) in MDA-MB-468 cells
settings: Homo sapiens, read-out: pIC50 for Inhibition of mTORC1 and mTORC2 Substarte Phosphorylation p-P70S6K-(T389) (converted)
readout kind: IC50

{"columns": ["chemical smiles", "readout kind", "test result"],
 "data": [
  ["CO[C@H]1C[C@@H]2CC[C@@H](C)[C@@](O)(O2)C(=O)C(=O)N2CCCC[C@H]2C(=O)O[C@H]([C@H](C)C[C@@H]2CC[C@@H](OC(=O)N3CCc4nc(N5CCN(C(=O)CCOCCN6CCN(c7ncc(C(=O)N8CCc9cc(Cn%10nc(-c%11cnc%12[nH]ccc%12c%11)c%11c(N)ncnc%11%10)ccc9C8)cn7)CC6)CC5)ncc4C3)[C@H](OC)C2)CC(=O)[C@H](C)/C=C(\\C)[C@@H](O)[C@@H](OC)C(=O)[C@H](C)C[C@H](C)/C=C/C=C/C=C/1C", "IC50", "≤ 1 nM"]
]}

###

measured target: KRAS G13D (Homo sapiens, UniProt P01116+P62937, G13D)
Sequence (P01116 1-169 isoform P01116-2 G13D limits assumed): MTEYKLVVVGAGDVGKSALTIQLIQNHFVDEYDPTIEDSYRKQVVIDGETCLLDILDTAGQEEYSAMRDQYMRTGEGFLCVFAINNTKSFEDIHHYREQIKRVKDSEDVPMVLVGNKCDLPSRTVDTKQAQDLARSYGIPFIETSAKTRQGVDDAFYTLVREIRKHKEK
Sequence (P62937 whole entry): as the sequence (P62937 whole entry) above
assay overview: Disruption of BRAF RBD interaction with Ras (FRET / MOA assay, with Cyclophilin A)
Assay type: biochemical
settings: KRAS G13D; read-out: KRAS G13D FRET data IC50
Catalogue of IC50 readings, one per entry.

{"columns": ["compound", "IC50"],
 "data": [
  ["CCn1c(-c2cc(N3CCN(C)CC3)cnc2[C@H](C)OC)c2c3cc(ccc31)-c1csc(n1)C[C@H](NC(=O)[C@H](C(C)C)N(C)C(=O)[C@@H]1OCC[C@@H]1c1ccccc1)C(=O)N1CCC[C@H](N1)C(=O)OCC(C)(C)C2 (atropisomer, axis not shown)", "100 to 1000 nM"],
  ["C=CC(=O)N1CC[C@H](C(=O)N(C)[C@H](C(=O)N[C@H]2Cc3nsc(n3)-c3ccc4c(c3)c(c(-c3cccnc3[C@H](C)OC)n4CC)CC(C)(C)COC(=O)[C@@H]3CCCN(N3)C2=O)C(C)C)C1 (atropisomer, axis not shown)", "1000 to 10000 nM"],
  ["CCn1c(-c2cccnc2[C@H](C)OC)c2c3cc(ccc31)-c1cccc(c1)C[C@H](NC(=O)[C@H](C(C)C)N1CC[C@]3(CCN(C(=O)C#C[C@]4(N(C)C)CCOC4)C3)C1=O)C(=O)N1CCC[C@H](N1)C(=O)OCC(C)(C)C2", "1000 to 10000 nM"],
  ["CCn1c(-c2cccnc2[C@H](C)OC)c2c3cc(ccc31)-c1csc(n1)C[C@H](NC(=O)[C@H](COC1CN(C(=O)C#CC(C)(C)N(C)C)C1)OC)C(=O)N1CCC[C@H](N1)C(=O)OCC(C)(C)C2 (atropisomer, axis not shown)", "> 10000 nM"]
]}
